Target: catD / beta-secretase (BACE)
Procedure Summary: CatD/BACE selectivity (ratio of IC50 values)
Format: biochemical
Condition: each value is an average of four experimental runs; multiple values = more than one experiment
Listed here: items and their measured IC50 catD/IC50 BACE.

[[record]]
compound = "CC(=O)NC(Cc1cc(F)cc(F)c1)C(O)CNC1(c2cccc(C(C)C)c2)CCN(S(C)(=O)=O)CC1 (stereo not drawn) [Example 196A-11]"
metric_name = "IC50 catD/IC50 BACE"
measured = 12.7

[[record]]
compound = "CC(=O)NC(Cc1cc(F)cc(F)c1)C(O)CNC1(c2cccc(-c3ccsc3)c2)CCC(=O)CC1 (stereo not drawn) [Example 196A-49]"
metric_name = "IC50 catD/IC50 BACE"
measured = 4.4

[[record]]
compound = "CC(=O)NC(Cc1cccc(F)c1)C(O)CNC1(c2cccc(C(C)C)c2)CCCCC1 (stereo not drawn) [Example 196A-4]"
metric_name = "IC50 catD/IC50 BACE"
measured = 1.1

[[record]]
compound = "CC(=O)NC(Cc1cc(F)cc(F)c1)C(O)CNC1(c2cccc(C(C)(C)C)c2)CCC(N(O)C(C)=O)CC1 (single isomer, unassigned) [196A-39 Diastereomer A]"
metric_name = "IC50 catD/IC50 BACE"
measured = 9.6

[[record]]
compound = "CC(=O)NC(Cc1cc(F)cc(F)c1)C(O)CNC1(c2cccc(C(C)C)c2)CCC2(CC1)OCCO2 (stereo not drawn) [Example 196A-6]"
metric_name = "IC50 catD/IC50 BACE"
measured = 11.4


-- ask Return value of IC50 catD/IC50 BACE for input CONC1CCC(NCC(O)C(Cc2cc(F)cc(F)c2)NC(C)=O)(c2cccc(C(C)(C)C)c2)CC1 (single isomer, unassigned) [196A-21 Diastereomer B] , no commentary.
-- reply 12.3

###

Target: catE / beta-secretase (BACE)
Procedure Summary: CatE/BACE selectivity (ratio of IC50 values)
Type: biochemical
Condition: each value is an average of four experimental runs; multiple values = more than one experiment
Listed here: items and their measured IC50 catE/IC50 BACE.
Output spec: single numeric token, no unit.

Examples with their reported IC50 catE/IC50 BACE follow.
[[record]]
molecule = "CC(=O)NC1CCC(NCC(O)C(Cc2cc(F)cc(F)c2)NC(C)=O)(c2cccc(C(C)(C)C)c2)CC1 (single isomer, unassigned) [196B-23 Diastereomer A]"
metric_name = "IC50 catE/IC50 BACE"
measured = 29.5

[[record]]
molecule = "CC(=O)NC(Cc1ccc(O)c(F)c1)C(O)CNC1(c2cccc(C(C)C)c2)CCCCC1 (centres unmarked) [Example 196B-1]"
metric_name = "IC50 catE/IC50 BACE"
measured = 3.2

[[record]]
molecule = "COC1CCC(NCC(O)C(Cc2cc(F)cc(F)c2)NC(C)=O)(c2cccc(C(C)(C)C)c2)CC1 (single isomer, unassigned) [196B-4 Diastereomer B]"
metric_name = "IC50 catE/IC50 BACE"
measured = 1.5


-- ask Return value of IC50 catE/IC50 BACE for input CC(=O)NC(Cc1cc(F)cc(F)c1)C(O)CNC1(c2cccc(-n3cccn3)c2)CCC2(CC1)OCCO2 (centres unmarked) [Example 196B-13] , no commentary.
-- reply 2.5

-- ask Return value of IC50 catE/IC50 BACE for input CC(=O)NC(Cc1cc(F)cc(F)c1)C(O)CNC1(c2cccc(C(C)(C)C)c2)CCC([S+](C)[O-])CC1 (single isomer, unassigned) [196B-25 Diastereomer A] , no commentary.
-- reply 1.1

-- ask Return value of IC50 catE/IC50 BACE for input CC(=O)NC(Cc1cc(F)cc(F)c1)C(O)CNC1(c2cccc(C(C)(C)C)c2)CCC(NC=O)CC1 (single isomer, unassigned) [196B-36 Diastereomer A] , no commentary.
-- reply 26.5

-- ask Return value of IC50 catE/IC50 BACE for input CC(=O)NC(Cc1cc(F)cc(F)c1)C(O)CNC1(c2cccc(C(C)(C)C)c2)CCC(C(F)(F)F)CC1 (single isomer, unassigned) [196B-22 Diastereomer B] , no commentary.
-- reply 2.5

-- ask Return value of IC50 catE/IC50 BACE for input CC(=O)NC(Cc1cc(F)cc(F)c1)C(O)CNC1(c2cccc(C(C)(C)C)c2)CCC(C)CC1 (centres unmarked) [Example 196B-5] , no commentary.
-- reply 3.1

-- ask Return value of IC50 catE/IC50 BACE for input COC(=O)NC1CCC(NCC(O)C(Cc2cc(F)cc(F)c2)NC(C)=O)(c2cccc(C(C)(C)C)c2)CC1 (single isomer, unassigned) [196B-29 Diastereomer A] , no commentary.
-- reply 13.1

-- ask Return value of IC50 catE/IC50 BACE for input CC(=O)NC(Cc1cc(F)cc(F)c1)C(O)CNC1(c2cccc(C(C)(C)C)c2)CCC(C#N)CC1 (centres unmarked) [Example 196B-41] , no commentary.
-- reply 2.5

-- ask Return value of IC50 catE/IC50 BACE for input CC(=O)NC(Cc1cc(F)cc(F)c1)C(O)CNC1(c2cccc(C(C)(C)C)c2)CCC(N(O)C(C)=O)CC1 (single isomer, unassigned) [196B-31 Diastereomer A] , no commentary.
-- reply 13.0
